Molecular target: human MC3R (human, UniProt P41968 1-323)
Sequence (P41968 whole entry): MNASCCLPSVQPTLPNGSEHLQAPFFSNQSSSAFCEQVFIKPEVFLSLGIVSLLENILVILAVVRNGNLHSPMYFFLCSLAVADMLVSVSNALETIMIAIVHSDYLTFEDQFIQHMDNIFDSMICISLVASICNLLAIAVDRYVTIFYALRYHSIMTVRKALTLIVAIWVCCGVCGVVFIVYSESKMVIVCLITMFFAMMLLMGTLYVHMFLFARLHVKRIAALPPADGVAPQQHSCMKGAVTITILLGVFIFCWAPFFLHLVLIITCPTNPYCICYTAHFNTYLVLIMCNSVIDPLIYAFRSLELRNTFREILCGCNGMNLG
Assay: cell-based or functional assay
Non-standard residues stand in square brackets, D forms with d. Phe(4-Cl) = N[C@@H](Cc1ccc(Cl)cc1)C(=O)O; NMeH = CN[C@@H](Cc1c[nH]cn1)C(=O)O; Nle = CCCC[C@H](N)C(=O)O

BINDER	MC3R cAMP (EC50) / nM
YVXFHFRWDRFG (Nle at 3; D-Phe at 4; D-Trp at 8) [CTX-1136]	1.9
Ac-[Nle][dA]HFR[dW][dF]RFG-OH (SMILES CCCC[C@H](NC(C)=O)C(=O)N[C@H](C)C(=O)N[C@@H](Cc1c[nH]cn1)C(=O)N[C@@H](Cc1ccccc1)C(=O)N[C@@H](CCCNC(=N)N)C(=O)N[C@H](Cc1c[nH]c2ccccc12)C(=O)N[C@H](Cc1ccccc1)C(=O)N[C@@H](CCCNC(=N)N)C(=O)N[C@@H](Cc1ccccc1)C(=O)NCC(=O)O) [CTX-1531]	356
Ac-[Nle][dA]H[Phe(4-Cl)]R[dW]DRFG-OH (SMILES CCCC[C@H](NC(C)=O)C(=O)N[C@H](C)C(=O)N[C@@H](Cc1c[nH]cn1)C(=O)N[C@@H](Cc1ccc(Cl)cc1)C(=O)N[C@@H](CCCNC(=N)N)C(=O)N[C@H](Cc1c[nH]c2ccccc12)C(=O)N[C@@H](CC(=O)O)C(=O)N[C@@H](CCCNC(=N)N)C(=O)N[C@@H](Cc1ccccc1)C(=O)NCC(=O)O) [CTX-1166]	1.6
Ac-[Nle][dA][NMeH]FR[dW]DRFG-OH (SMILES CCCC[C@H](NC(C)=O)C(=O)N[C@H](C)C(=O)N(C)[C@@H](Cc1c[nH]cn1)C(=O)N[C@@H](Cc1ccccc1)C(=O)N[C@@H](CCCNC(=N)N)C(=O)N[C@H](Cc1c[nH]c2ccccc12)C(=O)N[C@@H](CC(=O)O)C(=O)N[C@@H](CCCNC(=N)N)C(=O)N[C@@H](Cc1ccccc1)C(=O)NCC(=O)O) [CTX-1186]	200
YVXAHFRWDRFG (Nle at 3; D-Ala at 4; D-Phe at 6; D-Trp at 8) [CTX-1104]	3.5
H-MGHFR[dW]DRFG-OH (SMILES CSCC[C@H](N)C(=O)NCC(=O)N[C@@H](Cc1c[nH]cn1)C(=O)N[C@@H](Cc1ccccc1)C(=O)N[C@@H](CCCNC(=N)N)C(=O)N[C@H](Cc1c[nH]c2ccccc12)C(=O)N[C@@H](CC(=O)O)C(=O)N[C@@H](CCCNC(=N)N)C(=O)N[C@@H](Cc1ccccc1)C(=O)NCC(=O)O) [CTX-1547]	1.5

Each recorded value in this set is attributed to patent US20240287154A1.
